minimal effective concentration reference
# Test system: cGMP in primary cortical neurons
# PROTOCOL DETAILS: Increase of cGMP in primary cortical neurons
# Format: cell-based
# RUN CONDITIONS: Primary cortical neuron, 20 min; rat embryonic primary cortical neurons; 20 min incubation at 37° C. with IBMX; triplicate determination; more than 2-fold increase compared with the control; read-out: concentration leading to a statistically significant increase in cGMP
MEASUREMENT NAME: minimal effective concentration (µM)

MOLECULE: Fc1ccccc1Cn1nc(-c2ncc(N3CC4CCC(C3)O4)cn2)c2cccnc21
MEASURED TARGET: cGMP in primary cortical neurons
MEASUREMENT NAME: minimal effective concentration
UNIT OF MEASURE: µM
TEST VALUE: 0.27
//
MOLECULE: O=C1CCCCC1c1cnc(-c2nn(Cc3ccccc3F)c3ncccc23)nc1 (centres unmarked)
MEASURED TARGET: cGMP in primary cortical neurons
MEASUREMENT NAME: minimal effective concentration
UNIT OF MEASURE: µM
TEST VALUE: 0.27
//
MOLECULE: O=C1CCN(c2cnc(-c3nn(Cc4ccccc4F)c4ncccc34)nc2)C1
MEASURED TARGET: cGMP in primary cortical neurons
MEASUREMENT NAME: minimal effective concentration
UNIT OF MEASURE: µM
TEST VALUE: 0.27
//
MOLECULE: CO[C@H]1CN(c2cnc(-c3nn(Cc4ccccc4F)c4ncccc34)nc2)C[C@@H]1OC
MEASURED TARGET: cGMP in primary cortical neurons
MEASUREMENT NAME: minimal effective concentration
UNIT OF MEASURE: µM
TEST VALUE: 0.27
//
MOLECULE: COc1ccccc1-c1cnc(-c2nn(Cc3ccccc3F)c3ncccc23)nc1
MEASURED TARGET: cGMP in primary cortical neurons
MEASUREMENT NAME: minimal effective concentration
UNIT OF MEASURE: µM
TEST VALUE: 0.9
//
MOLECULE: Fc1ccccc1Cn1nc(-c2ncc(N3CC4CNCC(C3)O4)cn2)c2cccnc21
MEASURED TARGET: cGMP in primary cortical neurons
MEASUREMENT NAME: minimal effective concentration
UNIT OF MEASURE: µM
TEST VALUE: 1.2
//
MOLECULE: Fc1ccccc1Cn1nc(-c2ncc(-c3cn[nH]c3C3CC3)cn2)c2cccnc21
MEASURED TARGET: cGMP in primary cortical neurons
MEASUREMENT NAME: minimal effective concentration
UNIT OF MEASURE: µM
TEST VALUE: 0.27
//
MOLECULE: CO[C@H]1CCN(c2cnc(-c3nn(Cc4ccccc4F)c4ncccc34)nc2)C1
MEASURED TARGET: cGMP in primary cortical neurons
MEASUREMENT NAME: minimal effective concentration
UNIT OF MEASURE: µM
TEST VALUE: 0.27
